biological target: Sigma non-opioid intracellular receptor 1 (Cavia porcellus); experiment: Displacement of [3H](+)-pentazocine from sigma 1 receptor in guinea pig brain membrane without cerebellum
Sequence (Q60492 whole entry): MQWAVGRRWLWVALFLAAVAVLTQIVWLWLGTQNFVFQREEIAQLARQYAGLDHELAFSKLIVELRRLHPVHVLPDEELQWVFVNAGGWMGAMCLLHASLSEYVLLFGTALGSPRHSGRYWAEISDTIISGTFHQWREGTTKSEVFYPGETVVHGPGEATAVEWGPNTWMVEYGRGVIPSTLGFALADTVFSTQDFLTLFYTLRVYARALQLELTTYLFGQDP
pKi: −log10 of the molar value.
The following molecules are listed with their measured pKi values.

{"columns": ["structure_notation", "system_name", "pKi"],
 "data": [
  ["Clc1ccccc1[C@H]1CC[C@H](N2CCN(c3ccccn3)CC2)CC1", "Sigma non-opioid intracellular receptor 1 (Cavia porcellus)", 6.72],
  ["COc1cccc([C@H]2CC[C@H](N3CCN(c4ccccn4)CC3)CC2)c1", "Sigma non-opioid intracellular receptor 1 (Cavia porcellus)", 7.61],
  ["COc1ccc([C@H]2CC[C@@H](N3CCN(c4ccccn4)CC3)CC2)cc1", "Sigma non-opioid intracellular receptor 1 (Cavia porcellus)", 6.71],
  ["COc1cccc([C@H]2CC[C@@H](N3CCN(c4cccc5ccccc45)CC3)CC2)c1", "Sigma non-opioid intracellular receptor 1 (Cavia porcellus)", 6.62]
]}
